- Tested Target: T1, human LAP-TGFB1 Fc fusion (human)
- T1 construct: also called human LAP-TGFβ1-Fc; human LAP-TGFβ-Fc isoform 1
- T1 sequence (chain, as listed by the source limits assumed): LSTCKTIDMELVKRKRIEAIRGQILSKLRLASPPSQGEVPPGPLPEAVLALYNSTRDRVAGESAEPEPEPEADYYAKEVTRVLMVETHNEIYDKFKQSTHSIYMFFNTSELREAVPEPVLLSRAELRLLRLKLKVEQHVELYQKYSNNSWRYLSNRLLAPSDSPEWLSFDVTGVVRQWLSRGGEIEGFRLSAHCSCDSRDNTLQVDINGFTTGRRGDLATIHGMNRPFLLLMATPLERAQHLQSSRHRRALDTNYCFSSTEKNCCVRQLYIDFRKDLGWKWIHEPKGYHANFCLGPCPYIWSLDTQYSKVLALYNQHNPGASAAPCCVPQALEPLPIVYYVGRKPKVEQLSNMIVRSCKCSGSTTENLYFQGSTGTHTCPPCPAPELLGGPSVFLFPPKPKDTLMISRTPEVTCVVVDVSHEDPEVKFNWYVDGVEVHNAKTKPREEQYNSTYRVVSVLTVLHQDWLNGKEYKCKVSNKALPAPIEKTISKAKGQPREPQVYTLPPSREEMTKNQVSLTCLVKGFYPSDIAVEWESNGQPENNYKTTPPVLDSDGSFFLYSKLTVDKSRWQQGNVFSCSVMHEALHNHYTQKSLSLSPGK
- Protocol Details: SPR pH 7.4, antigen captured on Fab 54BLH
Below, each entry is listed alongside its reported kon.
Property Measured: kon (M⁻¹ s⁻¹)

INSERT INTO assay_data (binder, property_measured, observed_measurement) VALUES
  ('63BLH (Fab, V domains shown, also called 15BLM Fab; 015BLM Fab) VH: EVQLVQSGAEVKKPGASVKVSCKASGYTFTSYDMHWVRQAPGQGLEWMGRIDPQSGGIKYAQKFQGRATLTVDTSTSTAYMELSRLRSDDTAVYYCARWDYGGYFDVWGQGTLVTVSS VL: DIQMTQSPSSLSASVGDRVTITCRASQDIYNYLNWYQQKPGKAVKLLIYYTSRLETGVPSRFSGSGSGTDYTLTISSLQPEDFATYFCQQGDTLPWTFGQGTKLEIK', 'kon', '9.61e+06'),
  ('64BLH (Fab, V domains shown, also called 16BLM Fab) VH: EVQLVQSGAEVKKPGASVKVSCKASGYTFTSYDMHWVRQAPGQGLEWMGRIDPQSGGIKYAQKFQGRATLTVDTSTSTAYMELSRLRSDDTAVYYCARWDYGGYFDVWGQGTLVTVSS VL: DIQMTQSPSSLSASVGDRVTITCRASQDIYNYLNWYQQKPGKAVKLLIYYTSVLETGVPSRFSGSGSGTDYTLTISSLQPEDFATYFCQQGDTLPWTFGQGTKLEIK', 'kon', '1.53e+07'),
  ('67BLH (Fab, V domains shown, also called 19BLM Fab) VH: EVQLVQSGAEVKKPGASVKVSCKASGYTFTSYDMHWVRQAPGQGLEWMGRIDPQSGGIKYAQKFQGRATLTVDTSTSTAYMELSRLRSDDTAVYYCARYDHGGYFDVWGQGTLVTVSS VL: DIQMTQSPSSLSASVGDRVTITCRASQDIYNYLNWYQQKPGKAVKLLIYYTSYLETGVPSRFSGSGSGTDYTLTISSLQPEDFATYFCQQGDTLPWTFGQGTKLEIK', 'kon', '6.69e+06'),
  ('12BLM (antibody, human IgG1, kappa, L234A L235A, V domains shown, IgG1 L234A L235A D265S/kappa; also called 75BLH; 48BMD) VH: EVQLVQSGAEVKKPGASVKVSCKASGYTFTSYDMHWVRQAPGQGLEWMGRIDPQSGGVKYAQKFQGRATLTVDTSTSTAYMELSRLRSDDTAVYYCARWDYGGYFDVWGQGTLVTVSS VL: DIQMTQSPSSLSASVGDRVTITCRASQDIYNYLNWYQQKPGKAVKLLIYYTSVLETGVPSRFSGSGSGTDYTLTISSLQPEDFATYFCQQGDELPWTFGQGTKLEIKR', 'kon', '1.91e+07'),
  ('07BLM (antibody, human IgG1, kappa, L234A L235A, V domains shown, IgG1 L234A L235A D265S/kappa; also called 70BLH; 43BMD) VH: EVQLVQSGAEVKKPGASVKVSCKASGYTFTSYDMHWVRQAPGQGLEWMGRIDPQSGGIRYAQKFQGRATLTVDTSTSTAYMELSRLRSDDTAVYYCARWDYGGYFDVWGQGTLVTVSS VL: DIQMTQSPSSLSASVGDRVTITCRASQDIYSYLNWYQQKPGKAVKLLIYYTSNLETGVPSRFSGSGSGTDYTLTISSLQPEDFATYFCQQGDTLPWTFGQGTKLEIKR', 'kon', '1.45e+07');
